# study_system: EGFR (UniProt P00533)
# Sequence (P00533 whole entry, looked up): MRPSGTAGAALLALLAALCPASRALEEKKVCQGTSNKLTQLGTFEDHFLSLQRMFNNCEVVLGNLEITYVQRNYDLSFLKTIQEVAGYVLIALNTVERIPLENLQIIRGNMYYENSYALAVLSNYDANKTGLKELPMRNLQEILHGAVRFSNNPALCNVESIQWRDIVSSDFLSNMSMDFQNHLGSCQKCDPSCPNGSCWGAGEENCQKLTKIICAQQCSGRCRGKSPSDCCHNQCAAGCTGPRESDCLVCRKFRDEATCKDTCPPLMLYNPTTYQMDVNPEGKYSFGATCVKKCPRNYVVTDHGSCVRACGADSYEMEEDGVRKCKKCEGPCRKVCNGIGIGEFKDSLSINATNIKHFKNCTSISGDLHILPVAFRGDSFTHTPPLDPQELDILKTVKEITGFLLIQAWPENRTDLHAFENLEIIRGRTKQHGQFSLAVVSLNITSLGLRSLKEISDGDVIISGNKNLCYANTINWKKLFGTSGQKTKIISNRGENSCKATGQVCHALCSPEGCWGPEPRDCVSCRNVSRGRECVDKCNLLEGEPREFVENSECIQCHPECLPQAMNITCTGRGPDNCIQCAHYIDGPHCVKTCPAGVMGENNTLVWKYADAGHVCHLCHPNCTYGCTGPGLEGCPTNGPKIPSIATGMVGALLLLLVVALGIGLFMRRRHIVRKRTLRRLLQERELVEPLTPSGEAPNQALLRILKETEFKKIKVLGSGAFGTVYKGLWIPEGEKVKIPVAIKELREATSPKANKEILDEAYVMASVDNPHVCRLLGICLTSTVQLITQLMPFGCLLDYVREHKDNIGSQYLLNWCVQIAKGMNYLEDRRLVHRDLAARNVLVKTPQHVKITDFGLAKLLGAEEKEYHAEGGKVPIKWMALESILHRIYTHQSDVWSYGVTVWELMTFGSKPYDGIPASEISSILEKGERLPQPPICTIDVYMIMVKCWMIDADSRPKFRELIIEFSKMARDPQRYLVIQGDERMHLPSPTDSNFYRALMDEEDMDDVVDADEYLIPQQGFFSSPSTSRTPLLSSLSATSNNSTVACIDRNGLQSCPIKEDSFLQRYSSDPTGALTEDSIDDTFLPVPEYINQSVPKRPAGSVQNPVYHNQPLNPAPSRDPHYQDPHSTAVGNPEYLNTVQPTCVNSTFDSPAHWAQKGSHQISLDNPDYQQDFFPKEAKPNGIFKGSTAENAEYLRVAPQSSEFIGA
quantity_name: IC50

Answered cases to consult:
Task item: Item "OS(=O)(=O)CCNN1=CC=C2N=CN=C(Nc3cccc(Br)c3)C2=C1" with EGFR (UniProt P00533) - IC50?
Reply: 1.4 nM

Task item: Item "CN(C)c1ccc2ncnc(Nc3cccc(Br)c3)c2c1" with EGFR (UniProt P00533) - IC50?
Reply: 85 nM

New cases:
Task item: Item "CNc1cc2ncnc(Nc3cccc(Br)c3)c2cc1[N+](=O)[O-]" with EGFR (UniProt P00533) - IC50?
Reply: 69 nM

====

# study_system: EGFR (UniProt P00533)
pIC50: −log10 of the molar value.
Would you mind labelling by pIC50? At or over 8 is 1.0, under is 0.0.

Task item: Quick check: does "CN1CCN(CCCNN2=CC=C3N=CN=C(Nc4cccc(Br)c4)C3=C2)CC1" have pIC50 greater than or equal to 8?
Reply: 1.0

Task item: Quick check: does "COc1cc2ncnc(Nc3cccc(I)c3)c2cc1OC" have pIC50 greater than or equal to 8?
Reply: 1.0

Task item: Quick check: does "Cc1cccc(Nc2ncnc3ccccc23)c1" have pIC50 greater than or equal to 8?
Reply: 0.0

Task item: Quick check: does "Brc1cccc(Nc2ncnc3cnc(NCCn4ccnc4)nc23)c1" have pIC50 greater than or equal to 8?
Reply: 1.0

Task item: Quick check: does "Nc1cc2ncnc(Nc3ccccc3)c2cn1" have pIC50 greater than or equal to 8?
Reply: 0.0

As a next step, examine the compound that follows.
Task item: Quick check: does "Cc1cccc(Nc2ncnc3cnc(Cl)nc23)c1" have pIC50 greater than or equal to 8?
Reply: 0.0

====

Consider the following pIC50 values measured on UniProt:P00533.
Formally, pIC50 is defined as -log10 of the concentration c, with c in mol/L.

Task item: Query: pIC50; subject: "Cc1cccc(Nc2ncnc3cnc(N)nc23)c1"
Reply: 7.77

Task item: Query: pIC50; subject: "COc1cc2ncnc(Nc3cccc(Br)c3)c2cc1[N+](=O)[O-]"
Reply: 7.82

From here, focus on the item given below.
Task item: Query: pIC50; subject: "NNN1=CC=C2N=CN=C(Nc3cccc(Br)c3)C2=C1"
Reply: 8.14
